tgt: T1, Human HEVM recombinant protein (Sino Biological, 10334-H02H) (human, UniProt Q92956 39-202)
T1 construct: construct known only by catalogue number; also called HVEM; human HVEM
T1 sequence (looked up): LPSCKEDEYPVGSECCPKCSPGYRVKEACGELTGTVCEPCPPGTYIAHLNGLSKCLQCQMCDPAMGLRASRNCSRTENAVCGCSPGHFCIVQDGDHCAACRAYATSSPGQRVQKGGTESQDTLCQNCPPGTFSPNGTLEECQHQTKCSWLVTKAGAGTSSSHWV
protocolText: competition ELISA, competitor LIGHT-His
pIC50: −log10 of the molar value.
assayEndpoint: pIC50

binder	assayEndpoint	measuredValue
Ab_006 (H5S14-5A5A) (antibody, V domains shown, also called Ab_6) VH: DVQLQESGPGLVKPSQSLSLTCTVTGYSITSDFAWNWIRQFPGNKLEWMGYIVYSGSTSYNPSLKSRISITRDTSKNQFFLQLNSVTAEDTATYFCTRGMDYWGQGTSVTVSS VL: QIVLTQSPAIISASLGEEVTLTCSASSSVSYMHWYQQKSGTSPKLLIYSTSNLASGVPSRFSGSGSGTFYSLTISSVEAEDAADYYCHQWSSYLTFGAGTKLELK	pIC50	7.61
